Reported ratio to parent is given for each of the following variants.
B1: full-length mouse BTLA-EGFP, on cells [mouse] / full-length WT mouse HVEM-mCherry, on cells [mouse] (parent complex)
chain 1: EKATKRNDEECPVQLTITRNSKQSARTGELFKIQCPVKYCVHRPNVTWCKHNGTICVPLEVSPQLYTSWEENQSVPVFVLHFKPIHLSDNGSYSCSTNFNSQVINSHSVTIHVRERTQNSSEHPLITVSDIPDATNASGPSTMEERPGRTWLLYTLLPLGALLLLLACVCLLCFLKRIQGKEKKPSDLAGRDTNLVDIPASSRTNHQALPSGTGIYDNDPWSSMQDESELTISLQSERNNQGIVYASLNHCVIGRNPRQENNMQEAPTEYASICVRS
chain 2: QPSCRQEEFLVGDECCPMCNPGYHVKQVCSEHTGTVCAPCPPQTYTAHANGLSKCLPCGVCDPDMGLLTWQECSSWKDTVCRCIPGYFCENQDGSHCSTCLQHTTCPPGQRVEKRGTHDQDTVCADCLTGTFSLGGTQEECLPWTNCSAFQQEVRRGTNSTDTTCSSQVVYYVVSILLPLVIVGAGIAGFLICTRRHLHTSSVAKELEPFQEQQENTIRFPVTEVGFAETEEETASN

# Variants of: B1
# protocol-summary: flow cytometry, cell–cell method; read off a plot
recorded-endpoint: ratio to parent

| variant-notation | recorded-endpoint | value-reported |
| --- | --- | --- |
| chain 2 H48D, chain 2 L52D | ratio to parent | ~1.1 |
| chain 2 G34A, chain 2 V36D | ratio to parent | ~0.06 |
| chain 2 H48R, chain 2 L52A | ratio to parent | ~1.2 |
